Hi there, I'd appreciate the recorded growth for every entry that follows.
- Tested on: SF-268 CNS
- protocol description: NCI-60 one-dose screen, 48 h (100 = growth as untreated, 0 = no growth, -100 = all killed)
- measurement conditions: 10 µM unless noted
This is part of a sample that, as a whole, favours compounds with a hit. Of some 83,000 tested, about 20% had one in any assay. Activity calls are given as the source filed them. How the source made its calls: active means growth percent below 10; inactive means the rest.

Below: 10 molecules and their reported growth.
* CC1Cc2c(ncn3c(-c4ccc(F)cc4)nnc23)N(C)c2ccccc21 (stereo not drawn) | 56.6% (inactive)
* Cc1ccc(-c2nc(N3CCN(CC(=O)Nc4ccc(Cl)cc4)CC3)c3ccccc3n2)cc1 | 83.9% (inactive)
* CCCCCCCCCCCCCCCCCCOc1ccccc1CC(=O)OCC[N+](CC)(CC)CC | 23.8% (inactive)
* COc1ccc(-n2c(N)c(-c3nc4ccccc4[nH]3)cc(C#N)c2=O)cc1 | 95.8% (inactive)
* COc1cc2cc(Oc3ccc(NC(=O)Nc4ccc(Cl)c(C(F)(F)F)c4)cc3)c(C)nc2cc1OCCN1CCOCC1 | 32.2% (inactive)
* COc1ccc(C2C(N)=NNC2c2cccc(O)c2)cc1 (stereo not drawn) | 99.4% (inactive)
* O=S(=O)(Nc1ccc(-c2nc(-c3cccc(OCCN4CCOCC4)c3)c(-c3ccnc(Br)c3)[nH]2)cc1)c1ccccc1 | 41.3% (inactive)
* COc1ccc(-c2cc3c4c(nc5ccccc5c4c2)CC(c2cc(OC)c(OC)c(OC)c2)O3)cc1 (stereo not drawn) | 44.4% (inactive)
* Cc1ccc(C(=O)NCCNc2nccc(-c3c(-c4cccc(F)c4)nc4sccn34)n2)cc1 | 60% (inactive)
* CCc1cccc2c3c(sc12)C(c1ccc(F)cc1)C(C#N)=C(N)O3 (stereo not drawn) | 54.5% (inactive)

Please supply growth for each of the following items, keeping them in order.
1. CCOC(=O)c1cn2ncnc(Oc3ccc(NC(=O)NCCN(CC)CC)c(Cl)c3)c2c1C
2. C=CCNc1ccc2c3c(cccc13)C(=O)N(N1C(=O)c3cccc4cccc(c34)C1=O)C2=O
3. c1ccc2cc(C[n+]3ccn(CCCCCCCCCCCCn4cc[n+](Cc5ccc6ccccc6c5)c4)c3)ccc2c1
4. CNc1nc2c(s1)C(c1cc(F)ccc1F)CC(=O)N2 (stereo not drawn)
5. COc1ccn2c(C(C)=O)cc(C(=O)c3ccc4c(c3)Sc3ccccc3N4)c2c1
6. N#Cc1c(Nc2cccc(Cl)c2)sc(C(=O)c2cc3cc(Cl)ccc3o2)c1N
7. O=c1n(Cc2ccc3ccccc3c2)ccn1Cc1ccc2ccccc2c1
8. CC(=O)CC[C@H]1C(=O)N[C@@H](C(C)C)C(=O)N[C@@H](Cc2cc(O)cc(F)c2)C(=O)N2CCC[C@H](N2)C(=O)O[C@H](/C(C)=C/C=C/C(=O)OC(C)(C)C)C/C=C/C=C/[C@H](O)[C@H](C)[C@H]1O

## Output
65% (inactive)
98.1% (inactive)
-79.5% (active)
79.3% (inactive)
22.2% (inactive)
67.7% (inactive)
84.7% (inactive)
54.4% (inactive)

###

- System: DU-145 prostate
- protocol description: NCI-60 one-dose screen, 48 h (100 = growth as untreated, 0 = no growth, -100 = all killed)
- measurement conditions: 10 µM unless noted
Compounds without any hit were thinned out: in the full panel of roughly 83,000, 20% have a hit.
Doc: threshold 30% (exclusive). Items with growth beneath it return yes (1); others return no (0).

Use these answered entries as a reference point.
• COc1cc2cc(Oc3ccc(NC(=O)Nc4ccc(Cl)c(Cl)c4)cc3)c(C)nc2cc1OCCN1CCOCC1 = no (0)
• Cc1ccc(C2CC(c3ccc(Nc4ccnc5cc(Cl)ccc45)cc3)=NN2C=O)cc1 (centres undefined) = no (0)
• Cc1cc(O)c(C2=NN(c3ccc(S(N)(=O)=O)cc3)C(/C=C/c3ccccc3)C2)cc1Cl (centres undefined) = no (0)

## Input Please check: growth for `COc1ccc2sc3c(NCCCNCCO)nc4ccccc4c3c(=O)c2c1` , strictly under 30% or not?
## Output no (0)

## Input Please check: growth for CCc1cccc2c3c(sc12)C(c1ccc(Cl)cc1)C(C#N)=C(N)O3 (centres undefined) , strictly under 30% or not?
## Output yes (1)

## Input Please check: growth for `COc1cc2cc(Oc3ccc(NC(=O)Nc4cccc(C(F)(F)F)c4)cc3)c(C)nc2cc1OCCN1CCOCC1` , strictly under 30% or not?
## Output no (0)

## Input Please check: growth for `O=C1/C(=C/c2ccccc2[N+](=O)[O-])Oc2ccc(O)c(O)c21` , strictly under 30% or not?
## Output no (0)

## Input Please check: growth for `COc1ccc(OC)c(/C=C/C(=O)N/N=C/c2ccc(Cl)cc2)c1` , strictly under 30% or not?
## Output yes (1)

## Input Please check: growth for `CCCCCCNC(=O)Oc1ccc(/C(=C(\C)c2ccc(OC)cc2)c2ccc(OCCN3CCCCC3)cc2)cc1` , strictly under 30% or not?
## Output no (0)

###

- Test system: T-47D breast
- protocol description: NCI-60 one-dose screen, 48 h
- measurement conditions: 10 µM unless noted
This is part of a sample that, as a whole, favours compounds with a hit. Of some 83,000 tested, about 20% had one in any assay. The source made the active and inactive calls. How the source made its calls: active means growth percent below 10; inactive means the rest.
Returns: one label drawn from active, inactive

Use these answered entries as a reference point.
• O=C(/C=C/c1sc(Cl)nc1Cl)c1ccc(F)cc1 = inactive
• O=C(O)C(c1ccccc1)N1C(=O)CSC1=S (centres undefined) = inactive
• C=C1C(=O)O[C@H]2[C@H]1CC/C(COC(=O)CCC(=O)NCCOCCOCC(=O)Nc1ccc(OC)c(C(N)=O)c1O)=C\CC[C@@]1(C)O[C@@H]21 = inactive
• C/C(=C\C(=O)c1ccc(Cl)cc1)c1ccc(Cl)cc1 = inactive
• COc1ccc2c(c1)c(-c1ccc(-c3cn(C)c4ccc(OC)cc34)o1)cn2C = active

## Input Dear all, I need the recorded test outcome for `Cc1nc2cnc(N)c(C#Cc3cncc(C(=O)Nc4ccc(CN5CCN(C)CC5)c(C(F)(F)F)c4)c3)c2nc1C` , thank you.
## Output inactive

## Input Dear all, I need the recorded test outcome for `Cc1ccc(C(=O)N/N=C/c2cccc([N+](=O)[O-])c2)cn1` , thank you.
## Output inactive

## Input Dear all, I need the recorded test outcome for `C#Cc1cccc(NC(=O)c2ccc(NC(=O)C=C)cc2)c1` , thank you.
## Output inactive

## Input Dear all, I need the recorded test outcome for `CN1C(=O)CNC(=O)[C@H](NC(=O)c2nc3ccccc3cc2O)CSSC[C@H]1C(=O)NCCc1nc2ccccc2cc1O` , thank you.
## Output inactive

###

Hi there, I'd appreciate the recorded growth for every entry that follows.
- Tested on: CAKI-1 renal
- protocol description: NCI-60 one-dose screen, 48 h (100 = growth as untreated, 0 = no growth, -100 = all killed)
- measurement conditions: 10 µM unless noted
- Protocol: Growth inhibition of the CAKI-1 human tumor cell line is measured as a screen for anti-cancer activity. Cells are grown in 96 well plates and exposed to the test compound for 48 hours. Compounds are tested at a single concentration, which is 10^-5 M for most compounds. The reported endpoint is percent growth (GI% or GIPRCNT), where numbers from 0 - 100% represent growth inhibition, and numbers from -100% - 0 represent cell death. For example, a value of 40 represents 60% growth inhibition. […]
Compounds without any hit were thinned out: in the full panel of roughly 83,000, 20% have a hit. Active and inactive are the calls of the source. How the source made its calls: active means growth percent below 10; inactive means the rest.

Below: 6 molecules and their reported growth.
- Cc1nc2ccccc2c(/C=C/c2ccc(Cl)cc2)c1C(=O)/C=C/c1ccc(C(F)(F)F)cc1: -95.4% (active)
- CCc1ccc(Oc2c(-c3ccc(OCc4ccc(Cl)cc4)cc3O)n[nH]c2C(F)(F)F)cc1: 29.6% (inactive)
- COc1cc(OCc2cccc(-c3ccc(C(O)c4nccs4)cc3)c2C)cc(OC)c1CNCCNC(C)=O (centres undefined): 93.7% (inactive)
- c1ccc(Nc2cc(-c3cccnc3)[nH]n2)cc1: 90.1% (inactive)
- CC/C=C\C[C@@H]1C/C=C2/C(=O)C=C[C@H]2C/C=C\CCCC(=O)O1: 9.49% (active)
- CCOC(=O)c1sc2ncc(-c3ccc(C)cc3)n2c1C: 88.1% (inactive)

Please supply growth for each of the following items, keeping them in order.
1. Cc1ccc(C(C)C)cc1C(=O)C[n+]1ccccc1
2. CNCCCNc1nc2ccccc2c2c(=O)c3cc(F)ccc3sc12
3. BrCCCc1n(Cc2ccc3ccccc3c2)c2ccccc2[n+]1Cc1ccc2ccccc2c1
4. CNCCCNc1nc2ccccc2c2c(=O)c3cc(OC)ccc3sc12
5. Nc1ccc(Sc2ccc([N+](=O)[O-])c3nonc23)cc1
6. CNc1ccc(Nc2cccc(C)c2)c2c1C(=O)c1ccccc1C2=O

## Output
99.6% (inactive)
-60.9% (active)
-90.7% (active)
61.7% (inactive)
103% (inactive)
131% (inactive)

Please supply growth for each of the following items, keeping them in order.
1. COc1ccc2sc3c(NCCO)nc4ccccc4c3c(=O)c2c1
2. O=C(O)c1cn(C2CC2)c2cc(N3CCN(C(=O)Nc4nc(-c5ccccc5)cs4)CC3)c(F)cc2c1=O
3. CCCCNC(=O)Oc1ccc(/C(=C(\C)c2ccc(Cl)cc2)c2ccc(OCCN3CCCCC3)cc2)cc1
4. c1ccc(Cc2nn3cc(-c4ccccc4)nc3s2)cc1
5. COc1cc2cc(Oc3ccc(NC(=O)Nc4ccc(Cl)c(C(F)(F)F)c4)cc3)c(C)nc2cc1OCCN1CCOCC1

## Output
90.5% (inactive)
63.6% (inactive)
92.5% (inactive)
98.7% (inactive)
18.7% (inactive)

Please supply growth for each of the following items, keeping them in order.
1. CC(=O)CC[C@H]1C(=O)N[C@@H](C(C)C)C(=O)N[C@@H](Cc2cc(O)cc(F)c2)C(=O)N2CCC[C@H](N2)C(=O)O[C@H](/C(C)=C/C=C/C(=O)OC(C)(C)C)C/C=C/C=C/[C@H](O)[C@H](C)[C@H]1O
2. C(=N/Nc1ncnc2nc[nH]c12)/c1ccccn1
3. Cc1ccc2c(-c3cc(-c4ccccc4)nc(N)c3C#N)cc(=O)oc2c1
4. C[C@]12CC[C@@H]3c4cc(OC(F)F)c(OS(N)(=O)=O)cc4CC[C@H]3[C@@H]1CC[C@@H]2O
5. COc1cc(C2CC(c3cccc(Br)c3)=NN2C(C)=O)cc(OC)c1OC (centres undefined)

## Output
1. 57.4% (inactive)
2. -25.4% (active)
3. 100% (inactive)
4. 41.4% (inactive)
5. 39.1% (inactive)
